Values were extracted from patent US20240352046A1.

Biological target: ENPP-1 (Ectonucleotide Pyrophosphatase/Phosphodiesterase 1) (Homo sapiens (Human))
Assay: ENPP1 inhibition assay (AMP Glo, cGAMP substrate)
Format: biochemical
Conditions: cGAMP 20 μM substrate, ENPP1 1 nM
endpoint: IC50 (µM)

{"compound": "Cc1cc(Cl)n2ncnc(N3CC4(CC(N(C[C@@H](O)C(F)(F)F)S(N)(=O)=O)C4)C3)c12 (stereo in doubt) [Compound 1.125]", "unit.abbrev": "µM", "IC50": 0.05}

I = COc1cc2ncc(C#N)c(N3CC(CCNS(N)(=O)=O)C3)c2cc1OC [Compound 1.12]
II = COc1cc2ncnc(N3CC(CCNS(C)(=O)=O)C3)c2cc1OC [Compound 1.6]
Returns: the label, I or II , whose recorded IC50 is the lower number. The response must carry the label of the picked entry.
I
(I: 0.004 µM, II: 0.09 µM)

###

Molecular target: ENPP-1 (Ectonucleotide Pyrophosphatase/Phosphodiesterase 1) (Homo sapiens (Human))
Assay: ENPP1 inhibition assay (AMP Glo, cGAMP substrate)
Assay type: biochemical
Details: cGAMP 20 μM substrate, ENPP1 1 nM
endpoint: IC50 (µM)

Some solved entries appear below for comparison.
{"molecule": "COc1cc2ncnc(N3CC(CCS(N)(=O)=O)C3)c2cc1OC [Compound 1.52]", "tgt": "ENPP-1 (Ectonucleotide Pyrophosphatase/Phosphodiesterase 1) (Homo sapiens (Human))", "unit.abbrev": "µM", "IC50": 0.043}
{"molecule": "Cc1cc(Cl)n2ncnc(N3CC4(CC(N(CC(C)(C)C)S(N)(=O)=O)C4)C3)c12 [Compound 1.113]", "tgt": "ENPP-1 (Ectonucleotide Pyrophosphatase/Phosphodiesterase 1) (Homo sapiens (Human))", "unit.abbrev": "µM", "IC50": 0.169}
{"molecule": "Cc1cc(Cl)n2ncnc(N3CC4(CC(N(C)Cc5ccc(S(N)(=O)=O)cc5)C4)C3)c12 [Compound 1.133]", "tgt": "ENPP-1 (Ectonucleotide Pyrophosphatase/Phosphodiesterase 1) (Homo sapiens (Human))", "unit.abbrev": "µM", "IC50": 0.27}
{"molecule": "COc1cc2ncnc(N3CC(CCB(O)O)C3)c2cc1OC [Compound 1.30]", "tgt": "ENPP-1 (Ectonucleotide Pyrophosphatase/Phosphodiesterase 1) (Homo sapiens (Human))", "unit.abbrev": "µM", "IC50": 0.019}
{"molecule": "COc1ccc2c(N3CC(CCCS(N)(=O)=O)C3)ncnc2c1 [Compound 1.56]", "tgt": "ENPP-1 (Ectonucleotide Pyrophosphatase/Phosphodiesterase 1) (Homo sapiens (Human))", "unit.abbrev": "µM", "IC50": 0.085}

1 = CCCN(C1CC2(C1)CN(c1nc(C)nn3c(Cl)cc(C)c13)C2)S(N)(=O)=O [Compound 1.103]
2 = Cc1cc(Cl)n2ncnc(N3CC4(CC(N(C[C@H](O)C(F)(F)F)S(N)(=O)=O)C4)C3)c12 (stereo in doubt) [Compound 1.126]
Returns: the label, 1 or 2 , whose recorded IC50 is the lower number. The response must carry the label of the picked entry.
2

P = Cc1cc(Cl)n2ncnc(N3CC4(CC(N(C(C)C)S(N)(=O)=O)C4)C3)c12 [Compound 1.82]
Q = COc1cc2ncnc(N3CC4(CC(N(C5CC5)S(N)(=O)=O)C4)C3)c2cc1OC [Compound 1.48]
Rank P against Q by their IC50 values and give the higher one. The response must carry the label of the picked entry.
P

A = Cc1cc(C)n2ncnc(N3CC4(CC(N(C)S(N)(=O)=O)C4)C3)c12 [Compound 1.77]
B = CN(C1CC2(C1)CN(c1ncnc3c(Cl)cn(C)c13)C2)S(N)(=O)=O [Compound 1.123]
Rank A against B by their IC50 values and give the higher one. The response must carry the label of the picked entry.
A
(A: 0.295 µM, B: 0.039 µM)

###

Molecular target: ENPP-1 (Ectonucleotide Pyrophosphatase/Phosphodiesterase 1) (Homo sapiens (Human), UniProt P22413)
Sequence (P22413 whole entry): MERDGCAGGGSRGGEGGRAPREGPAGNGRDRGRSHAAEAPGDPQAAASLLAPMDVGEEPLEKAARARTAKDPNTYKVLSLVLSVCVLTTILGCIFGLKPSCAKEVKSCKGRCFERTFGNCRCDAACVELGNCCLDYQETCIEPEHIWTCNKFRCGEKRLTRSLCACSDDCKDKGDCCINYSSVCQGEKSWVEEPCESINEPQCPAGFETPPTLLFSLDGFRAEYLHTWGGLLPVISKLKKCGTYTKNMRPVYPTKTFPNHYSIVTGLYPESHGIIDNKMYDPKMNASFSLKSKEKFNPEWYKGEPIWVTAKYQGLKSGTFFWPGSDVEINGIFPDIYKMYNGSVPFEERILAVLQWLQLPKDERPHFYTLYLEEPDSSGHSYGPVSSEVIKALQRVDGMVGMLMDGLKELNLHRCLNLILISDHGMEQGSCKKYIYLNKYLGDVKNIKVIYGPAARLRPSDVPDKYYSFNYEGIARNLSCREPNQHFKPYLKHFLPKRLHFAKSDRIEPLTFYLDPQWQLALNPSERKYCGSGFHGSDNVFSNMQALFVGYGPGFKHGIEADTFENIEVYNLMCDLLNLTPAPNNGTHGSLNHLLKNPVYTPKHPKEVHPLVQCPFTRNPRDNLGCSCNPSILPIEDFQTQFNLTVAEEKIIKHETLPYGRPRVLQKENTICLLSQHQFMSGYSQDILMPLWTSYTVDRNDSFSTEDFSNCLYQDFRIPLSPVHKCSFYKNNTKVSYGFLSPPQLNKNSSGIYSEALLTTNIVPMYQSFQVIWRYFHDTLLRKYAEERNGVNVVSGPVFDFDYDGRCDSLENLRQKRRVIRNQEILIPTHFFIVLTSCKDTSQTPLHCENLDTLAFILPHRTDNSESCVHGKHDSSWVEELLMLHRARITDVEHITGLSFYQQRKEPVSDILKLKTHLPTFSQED
Experiment: ENPP1 inhibition assay (AMP Glo, cGAMP substrate)
Type: biochemical
Details: cGAMP 20 μM substrate, ENPP1 1 nM
endpoint: IC50 (µM)

Some solved entries appear below for comparison.
{"mol.smiles": "Cc1cc(Cl)n2ncnc(N3CC4(CC(N(CCF)S(N)(=O)=O)C4)C3)c12", "unit.abbrev": "µM", "observed.measurement": 0.043}
{"mol.smiles": "CCCN(C1CC2(C1)CN(c1ncnn3c(Cl)cc(C)c13)C2)S(N)(=O)=O", "unit.abbrev": "µM", "observed.measurement": 0.036}
{"mol.smiles": "Cc1ccn2ncnc(N3CC4(CC(N(C)S(N)(=O)=O)C4)C3)c12", "unit.abbrev": "µM", "observed.measurement": 0.247}

I = Cc1cc(Cl)n2ncnc(N3CC4(CC(NCc5ccc(S(N)(=O)=O)cc5)C4)C3)c12
II = COc1cc2nccc(N3CC(CCNS(N)(=O)=O)C3)c2cc1OC
III = COc1cc2ncnc(N3CC(CCNS(N)(=O)=O)C3)c2cc1F
IV = COc1cc2nc(-c3ccn(C)n3)nc(N3CC(CCNS(N)(=O)=O)C3)c2cc1OC
Ascending by IC50, please: list the compounds accordingly. Return the labels ranked in the requested order, please.
III, II, I, IV

###

Biological target: ENPP-1 (Ectonucleotide Pyrophosphatase/Phosphodiesterase 1) (Homo sapiens (Human))
Assay: ENPP1 inhibition assay (AMP Glo, cGAMP substrate)
Assay type: biochemical
Conditions: cGAMP 20 μM substrate, ENPP1 1 nM
endpoint: IC50 (µM)

Some solved entries appear below for comparison.
{"mol.smiles": "COc1cc2ncnc(N3CC(CCNS(N)(=O)=O)C3)c2cc1OC", "endpoint": "IC50", "unit.abbrev": "µM", "observed.measurement": 0.008}
{"mol.smiles": "Cc1cc(Cl)n2ncnc(N3CC4(CC(N(CC5CC5)S(N)(=O)=O)C4)C3)c12", "endpoint": "IC50", "unit.abbrev": "µM", "observed.measurement": 0.051}
{"mol.smiles": "Cc1cc(Cl)n2ncnc(N3CC4(CC(N(C5CCC5)S(N)(=O)=O)C4)C3)c12", "endpoint": "IC50", "unit.abbrev": "µM", "observed.measurement": 0.398}
{"mol.smiles": "CN(C1CC2(C1)CN(c1ncnc3[nH]cc(Cl)c13)C2)S(N)(=O)=O", "endpoint": "IC50", "unit.abbrev": "µM", "observed.measurement": 1.86}
{"mol.smiles": "Cc1cc(Cl)n2ncnc(N3CC(CN(C)S(N)(=O)=O)C3)c12", "endpoint": "IC50", "unit.abbrev": "µM", "observed.measurement": 0.106}
{"mol.smiles": "COc1cc2ncnc(N3CC(CCCS(=O)(=O)O)C3)c2cc1OC", "endpoint": "IC50", "unit.abbrev": "µM", "observed.measurement": 0.078}

1 = Cc1cc(Cl)n2ncnc(N3CC4(CC(N(CC5CCC(F)(F)CC5)S(N)(=O)=O)C4)C3)c12
2 = COc1cc2ncnc(N3CC(C)(CCNS(N)(=O)=O)C3)c2cc1OC
Returns: the label, 1 or 2 , whose recorded IC50 is the lower number. The response must carry the label of the picked entry.
2
(2: 0.009 µM, 1: 0.072 µM)

###

Target: ENPP-1 (Ectonucleotide Pyrophosphatase/Phosphodiesterase 1) (Homo sapiens (Human), UniProt P22413)
Assay: ENPP1 inhibition assay (AMP Glo, cGAMP substrate)
Type: biochemical
Settings: cGAMP 20 μM substrate, ENPP1 1 nM
Description: IC50 values of compounds against ENPP-1 (Ectonucleotide Pyrophosphatase/Phosphodiesterase 1) were determined at Integral BioSciences (India) using AMP Glo (Promega, Cat #V5011). […] The reaction was further incubated for 60 min at RT after which the plates were read using BioTek Plate reader. Analysis was done using the standard curve by non-linear regression, variable slope inhibitor curve fits (Graph-Pad Prism) and IC50's of compounds were determined wherever possible.
endpoint: IC50 (µM)

Some solved entries appear below for comparison.
{"mol.smiles": "COc1cc2ncnc(N3CC(CCNS(N)(=O)=O)(c4ccccc4)C3)c2cc1OC", "observed.measurement": 0.66}
{"mol.smiles": "CN(C1CC2(C1)CN(c1ncnc3c1cnn3C)C2)S(N)(=O)=O", "observed.measurement": 0.091}
{"mol.smiles": "COc1cc2ncnc(N3CC(CCC(=O)O)C3)c2cc1OC", "observed.measurement": 0.16}

P = COc1cc2nncc(N3CC4(CC(N(C)S(N)(=O)=O)C4)C3)c2cc1OC
Q = COc1cc2ncnc(N3CC4(CC(CB(O)O)C4)C3)c2cc1OC
Rank P against Q by their IC50 values and give the higher one. The response must carry the label of the picked entry.
Q

###

Molecular target: ENPP-1 (Ectonucleotide Pyrophosphatase/Phosphodiesterase 1) (Homo sapiens (Human))
Experiment: ENPP1 inhibition assay (AMP Glo, cGAMP substrate)
Format: biochemical
Settings: cGAMP 20 μM substrate, ENPP1 1 nM
Description: IC50 values of compounds against ENPP-1 (Ectonucleotide Pyrophosphatase/Phosphodiesterase 1) were determined at Integral BioSciences (India) using AMP Glo (Promega, Cat #V5011). […] The reaction was further incubated for 60 min at RT after which the plates were read using BioTek Plate reader. Analysis was done using the standard curve by non-linear regression, variable slope inhibitor curve fits (Graph-Pad Prism) and IC50's of compounds were determined wherever possible.
endpoint: IC50 (µM)

Some solved entries appear below for comparison.
{"compound": "COc1cc2ncnc(N3CC4(CC(NS(N)(=O)=O)C4)C3)c2cc1OC", "unit.abbrev": "µM", "IC50": 0.005}
{"compound": "Cc1cc(Cl)n2ncnc(N3CC4(CC(N(Cc5ccccc5)S(N)(=O)=O)C4)C3)c12", "unit.abbrev": "µM", "IC50": 0.141}
{"compound": "COc1cc2ncnc(N3CC4(CC(N(C)S(N)(=O)=O)C4)C3)c2cc1OC", "unit.abbrev": "µM", "IC50": 0.019}

P = Cc1cc(Cl)n2ncnc(N3CC4(CC(N(CC(O)C(F)(F)F)S(N)(=O)=O)C4)C3)c12 (centres unmarked)
Q = Cc1cc(Cl)n2ncnc(N3CC4(CC(N(CC(F)F)S(N)(=O)=O)C4)C3)c12
Returns: the label, P or Q , whose recorded IC50 is the lower number. The response must carry the label of the picked entry.
Q

A = COc1cc2ncnc(N3CC(CCC(=O)NO)C3)c2cc1OC
B = COc1cc2ncnc(N3CC(C(C)CNS(N)(=O)=O)C3)c2cc1OC (centres unmarked)
Returns: the label, A or B , whose recorded IC50 is the lower number. The response must carry the label of the picked entry.
A
(A: 0.015 µM, B: 0.024 µM)
